Origin of measurements: ChEMBL document CHEMBL4680171

Listed next: entries and their corresponding MIC.
Tested on: Clostridioides difficile
assayProcedure: Antibacterial activity against Clostridium difficile BAA1870 assessed as reduction in bacterial growth by CLSI based broth microdilution method
Format: functional
Quick note: give the figure in µg/mL, leave out the unit.

> print(dat)
                                   compound  numericresult
1  Cc1nc(-c2ccc(C(C)(C)C)cc2)sc1-c1nnc(NCCN(C)C)o1             16

Recorded result, "Cc1nc(-c2ccc(C(C)(C)C)cc2)sc1-c1nnc(N[C@H]2CC[C@H](N)CC2)o1" , MIC: 8

Recorded result, "CC(=O)NC[C@H]1CN(c2ccc(N3CCOCC3)c(F)c2)C(=O)O1" , MIC: 1

Recorded result, "Cc1nc(-c2ccc(C(C)(C)C)cc2)sc1-c1nnc(N2CCC[C@@H]2CO)o1" , MIC: 32

Recorded result, Cc1nc(-c2ccc(C(C)(C)C)cc2)sc1-c1nnc(NCC2CCCCN2)o1 (configuration not stated) , MIC: 16

Recorded result, "Cc1nc(-c2ccc(C(C)(C)C)cc2)sc1-c1nnc(N2CC[C@H](N(C)C)C2)o1" , MIC: 32

Recorded result, Cc1nc(-c2ccc(C(C)(C)C)cc2)sc1-c1nnc(N[C@@H]2CCCC[C@H]2N)o1 (relative stereo) , MIC: 16

Recorded result, "Cc1nc(-c2ccc(C(C)(C)C)cc2)sc1-c1nnc(NCCO)o1" , MIC: 32

Recorded result, "Cc1nc(-c2ccc(C(C)(C)C)cc2)sc1-c1nnc(NCCCO)o1" , MIC: 32

Recorded result, "Cc1nc(-c2ccc(C(C)(C)C)cc2)sc1-c1nnc(NC[C@@H](O)CO)o1" , MIC: 32

Recorded result, Cc1nc(-c2ccc(C(C)(C)C)cc2)sc1-c1nnc(N[C@@H]2CCCC[C@@H]2N)o1 (relative stereo) , MIC: 64

Recorded result, Cc1nc(-c2ccc(C(C)(C)C)cc2)sc1-c1nnc(NCC(O)CO)o1 (configuration not stated) , MIC: 32

Recorded result, "Cc1nc(-c2ccc(C(C)(C)C)cc2)sc1-c1nnc(NCC(=N)N)o1" , MIC: 64

Recorded result, "Cc1nc(-c2ccc(C(C)(C)C)cc2)sc1-c1nnc(N2CCC[C@H]2CO)o1" , MIC: 16

Recorded result, "Cc1nc(-c2ccc(C(C)(C)C)cc2)sc1-c1nnc(N2CCC[C@@H]2C(N)=O)o1" , MIC: 32
